All figures here come from PubChem BioAssay (NCI).

# Test system: NCI-H226 lung
# procedure_text: NCI tumour cell line growth inhibition, 48 h
assay_endpoint: TGI

Report TGI, nothing else, for this compound: CC[As](CC)SCC1OC(OC(C)=O)C(OC(C)=O)C(OC(C)=O)C1OC(C)=O (centres undefined)
28.9 µM

Report TGI, nothing else, for this compound: O=C(CC1(O)C(=O)Nc2ccccc21)c1ccccc1O (centres undefined)
> 100 µM

Report TGI, nothing else, for this compound: O=C(CC(=O)N1N=C(N(c2ccccc2)c2ccccc2)CC1c1ccccc1)Nc1cccc(Cl)c1 (centres undefined)
> 100 µM

Report TGI, nothing else, for this compound: O=C(Nc1cccc(-n2cc(-c3ccncc3)c(-c3ccc(Cl)c(O)c3)n2)c1)Nc1ccc(Cl)c(Cl)c1
> 32.5 µM

Report TGI, nothing else, for this compound: O=c1c2cc([N+](=O)[O-])ccc2n2n1CCCCC2
> 100 µM

Report TGI, nothing else, for this compound: COc1c(B(O)O)cccc1-c1nc2c(F)cc3n[nH]c(C)c3c2c2c1CCCC2
> 14.2 µM

Report TGI, nothing else, for this compound: COC(=O)C1=CCC2c3[nH]c4ccccc4c3CCN2C1 (centres undefined)
> 354 µM

Report TGI, nothing else, for this compound: CN(C)NC1=NS(=O)(=O)c2cc3c(=O)n(C)[nH]c3cc2S1
> 10 µM

Report TGI, nothing else, for this compound: CCCCOC(=O)c1c(C)[nH]c(/C=C2\N=C(c3ccc[nH]3)C=C2OC)c1C
1.72 µM

---

Field: TGI. Provide a value for each of the compounds that follow.
# Tested on: EKVX NSCLC
# procedure_text: NCI tumour cell line growth inhibition, 48 h

Report TGI, nothing else, for this compound: NC(CSCSCC(N)C(=O)O)C(=O)O (centres undefined)
> 225 µM

Report TGI, nothing else, for this compound: Cc1cnc(-c2ccc(-c3ccc(NC(=O)Nc4c(F)cc(F)cc4F)cc3F)c3c2C(=O)NC3)[nH]1
> 100 µM

Report TGI, nothing else, for this compound: C=CCOCn1cnc2c(=O)[nH]c(N)nc21
> 100 µM

Report TGI, nothing else, for this compound: NC1(C(=O)N[C@@H](CCO)c2ccc(Cl)cc2)CCN(c2ncnc3[nH]ccc23)CC1
> 100 µM

Report TGI, nothing else, for this compound: COc1c(B(O)O)cccc1-c1nc2c(F)cc3n[nH]c(C)c3c2c2c1CCCC2
> 27 µM

Report TGI, nothing else, for this compound: COCCn1c2c([n+](Cc3cnccn3)c1C)C(=O)c1ccccc1C2=O
0.0162 µM

Report TGI, nothing else, for this compound: O=C(N/N=C/c1ccncc1)c1ccc(F)cc1
> 40 µM

Report TGI, nothing else, for this compound: COc1cc(CC(=O)O)c([N+](=O)[O-])cc1OC
> 100 µM

Report TGI, nothing else, for this compound: C[C@@H]1CC[C@@]2(C)[C@H](C)/C(=C\COC(=O)/C=C/c3ccc(O)c(O)c3)CC[C@@]12C
30.8 µM

Report TGI, nothing else, for this compound: C#CCn1c(=O)ccn(/C(=C/C(=O)OCC)C(=O)OCC)c1=O
20.3 µM

Report TGI, nothing else, for this compound: COc1cc(C)[nH]c(=O)c1CNC(=O)c1c(C)n([C@H](C)C2CCN(CC(F)(F)F)CC2)c2ccccc12
> 100 µM

Report TGI, nothing else, for this compound: S=C1NNC2(C(=S)N1)c1ccccc1-c1ccccc12
> 10 µM

Report TGI, nothing else, for this compound: NC1NCCC(=O)N1CCc1c[nH]c2ccccc12 (centres undefined)
75.5 µM

Report TGI, nothing else, for this compound: Cn1c(=O)cc(Nc2ccc(N)cc2)[nH]c1=O
> 100 µM

---

# Test system: SF-539 CNS
# procedure_text: NCI tumour cell line growth inhibition, 48 h
assay_endpoint: TGI

Report TGI, nothing else, for this molecule: CN(Cc1cnc2nc(N)nc(N)c2n1)c1ccc(C(=O)NCCCC(=O)O)cc1
> 100 µM

Report TGI, nothing else, for this molecule: CN(C)NC1=NS(=O)(=O)c2cc3c(=O)n(C)[nH]c3cc2S1
> 10 µM

Report TGI, nothing else, for this molecule: CCn1ncc(N=O)c1N
> 100 µM

Report TGI, nothing else, for this molecule: COc1ccc(Nc2cc(=O)[nH]c(=O)[nH]2)cc1
> 100 µM

Report TGI, nothing else, for this molecule: c1cc(CSc2ncnc3nc[nH]c23)ccn1
> 100 µM

Report TGI, nothing else, for this molecule: CC(=O)N[C@@H](Cc1ccc(OP(=O)(O)O)cc1)C(=O)N[C@H]1CCC(=O)N2CCC[C@@H](C(=O)NC3CCc4ccccc43)N2C1=O (some centres undefined)
> 25 µM

Report TGI, nothing else, for this molecule: Cc1[nH]nc(C(=O)N/N=C/c2ccccc2Cl)c1N=NN(C)C
> 29.9 µM

Report TGI, nothing else, for this molecule: CCOC(=O)C(=O)C(C#N)c1ccc(Cl)cc1 (centres undefined)
> 100 µM

Report TGI, nothing else, for this molecule: Cn1c(=O)n(C2(C)CSC2)c2ccccc21
> 100 µM

---

# Tested on: NCI/ADR-RES ovarian
# procedure_text: NCI tumour cell line growth inhibition, 48 h
assay_endpoint: TGI

Report TGI, nothing else, for this compound: CC/C(=C(/c1ccc(OCCN(C)C)cc1)c1ccc(OC(=O)CCCCCCCCC(=O)c2c(C)[nH]c(/C=C3\N=C(c4ccc[nH]4)C=C3OC)c2C)cc1)c1ccccc1
> 100 µM

Report TGI, nothing else, for this compound: O=C(CC(=O)N1N=C(N(c2ccccc2)c2ccccc2)CC1c1ccccc1)Nc1cccc(Cl)c1 (centres undefined)
> 100 µM

Report TGI, nothing else, for this compound: c1cc(CSc2ncnc3nc[nH]c23)ccn1
> 100 µM

Report TGI, nothing else, for this compound: CC(C)=CCc1cc(/C=C/C(=O)O)cc(CC=C(C)C)c1O
> 100 µM

Report TGI, nothing else, for this compound: CCOC(=O)CC1Nc2ccccc2C12CCc1c([nH]c3ccccc13)C2C(=O)OCC (centres undefined)
> 100 µM

Report TGI, nothing else, for this compound: Cc1cccc(N=N/C(=N\NC(=O)c2cc(Cl)ccc2O)c2ccc(N(CCC#N)CCC#N)cc2C)c1
> 100 µM

Report TGI, nothing else, for this compound: COc1cc(N(CCCl)CCCl)ccc1/C=N\NC(=O)c1cccnc1
> 100 µM

Report TGI, nothing else, for this compound: [O-][N+]1=C2CCC/C(=N/O)C2(O)C2CCCCC21N1CCOCC1 (centres undefined)
> 100 µM

Report TGI, nothing else, for this compound: CCC(C)C1NC(=O)C(NC(=O)C(CC(C)C)N(C)C(=O)[C@@H]2CC(O)CN2C(=O)[C@H](C)O)C(C)OC(=O)[C@H](Cc2ccc(OC)cc2)N(C)C(=O)[C@@H]2CCCN2C(=O)[C@H](CC(C)C)NC(=O)C(C)C(=O)[C@H](C(C)C)OC(=O)CC1O (some centres undefined)
> 100 µM

---

# Tested on: HL-60(TB) leukemia
# procedure_text: NCI tumour cell line growth inhibition, 48 h
Field: TGI. Provide a value for each of the compounds that follow.

Consider the compound Cn1c(=S)[nH]c(N)c(Cc2ccccc2)c1=O tested on HL-60(TB) leukemia; state its TGI.
> 100 µM

Consider the compound Cc1ncc(CBr)c(CBr)c1O tested on HL-60(TB) leukemia; state its TGI.
> 100 µM

Consider the compound NS(=O)(=O)c1ccc(NC(=O)c2ccc3nc4ccccc4c(Nc4ccc(S(N)(=O)=O)cc4)c3c2)cc1 tested on HL-60(TB) leukemia; state its TGI.
> 100 µM

Consider the compound CC(=O)Oc1cc(-c2oc3cc(OC(C)=O)c(C4OC(CO)C(O)C(O)C4O)c(OC(C)=O)c3c(=O)c2O)c(OC(C)=O)cc1O (stereo not drawn) tested on HL-60(TB) leukemia; state its TGI.
> 100 µM

Consider the compound COC(=O)[C@H](Cc1ccccc1)NC(=O)N(CCNC(=O)OC(C)(C)C)c1ccccc1 tested on HL-60(TB) leukemia; state its TGI.
> 100 µM

Consider the compound CCN(/N=C1\CC2C=CCN(C2)C(=O)Cc2c1[nH]c1ccccc21)S(=O)(=O)c1ccc(C)cc1 (stereo not drawn) tested on HL-60(TB) leukemia; state its TGI.
> 100 µM

Consider the compound Nc1cc(N)c2nc(NCCc3ccc(Cl)c(Cl)c3)cnc2c1 tested on HL-60(TB) leukemia; state its TGI.
4.88 µM

Consider the compound O=C(O)c1ccc(Nc2cnc3cc(C(F)(F)F)ccc3n2)cc1 tested on HL-60(TB) leukemia; state its TGI.
> 100 µM

Consider the compound OCC1OC(n2cnc3c(Cl)nc(Nc4ccc(Cl)c(Cl)c4)nc32)CC1O (stereo not drawn) tested on HL-60(TB) leukemia; state its TGI.
16.4 µM

Consider the compound CCCCCCCCCCCCCCCCCC[S+](C)CC (stereo not drawn) tested on HL-60(TB) leukemia; state its TGI.
3.8 µM

Consider the compound Cc1cc(C)nc(NS(=O)(=O)c2ccc(NC(=O)COC(=O)c3cccc4c(=O)c5ccccc5[nH]c34)cc2)n1 tested on HL-60(TB) leukemia; state its TGI.
63.9 µM

Consider the compound CN(C)NC1=NS(=O)(=O)c2cc3c(=O)n(C)[nH]c3cc2S1 tested on HL-60(TB) leukemia; state its TGI.
> 10 µM

Consider the compound Nc1c(C(=O)Nc2cccc(C(F)(F)F)c2)sc2nc3c(cc12)CCCCCC3 tested on HL-60(TB) leukemia; state its TGI.
> 100 µM
